B1: POU domain, class 3, transcription factor 4, residues 280 to 335; numbered along this chain, P49335 (parent)
chain: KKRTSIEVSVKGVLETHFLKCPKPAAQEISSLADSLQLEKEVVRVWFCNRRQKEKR

# Variants of: B1
# TEST_METHOD_NOTES: abundance fitness (aPCA) (normalised: wild type 0, dead -1); higher = more abundant; growth selection in yeast, the domain comes from the species named
# MEASUREMENT_PARAMETERS: Homo sapiens
MEASURED_ENDPOINT: abundance fitness
Answers are plain numbers.

Solved entries:
sequence_string=KKRTSHEVSVKGVLETHFLKCPKPAAQEISSLADSLQLEKEVVRVWFCNRRQKEKR measured_endpoint="abundance fitness" result=-0.128
sequence_string=KKRTSIEVSVKGVLETHRLKCPKPAAQEISSLADSLQLEKEVVRVWFCNRRQKEKR measured_endpoint="abundance fitness" result=-0.812
sequence_string=KKRTSIEVSIKGVLETHFLKCPKPAAQEISSLADSLQLEKEVVRVWFCNRRQKEKR measured_endpoint="abundance fitness" result=0.08
sequence_string=KKRTSIEVSVKGVLETHFLKCPKPAAQEISSLADSLQLEKEVVRVWFSNRRQKEKR measured_endpoint="abundance fitness" result=0.078
sequence_string=KKRTSIEVVVKGVLETHFLKCPKPAAQEISSLADSLQLEKEVVRVWFCNRRQKEKR measured_endpoint="abundance fitness" result=-0.173

Please look at the items below and tell me abundance fitness for each one, in order.
1. KKRTSIEVSVKGVLETHFLKCPKPAAQEISSLADSLQLEKEVVRVQFCNRRQKEKR
2. KKRTSIEVSVKGVLETHFLKCVKPAAQEISSLADSLQLEKEVVRVWFCNRRQKEKR
3. KKRTSIEVSVKGVLETHFLKCPKPAAQEISSLADSLQLEKEVVRVKFCNRRQKEKR
4. KKRTSIEVSVKGVLETHFLKCPSPAAQEISSLADSLQLEKEVVRVWFCNRRQKEKR
5. KKRTSIEVSVKGVLETHFLKCPKPAAQEIRSLADSLQLEKEVVRVWFCNRRQKEKR
6. EKRTSIEVSVKGVLETHFLKCPKPAAQEISSLADSLQLEKEVVRVWFCNRRQKEKR
7. KKRTSIEVSVKGVLETHFLKCCKPAAQEISSLADSLQLEKEVVRVWFCNRRQKEKR
8. KKRMSIEVSVKGVLETHFLKCPKPAAQEISSLADSLQLEKEVVRVWFCNRRQKEKR

1. -0.403
2. -0.469
3. -0.673
4. 0.17
5. -0.185
6. -0.049
7. -0.502
8. 0.108

Please look at the items below and tell me abundance fitness for each one, in order.
1. RKRTSIEVSVKGVLETHFLKCPKPAAQEISSLADSLQLEKEVVRVWFCNRRQKEKR
2. KKRTSIEVSVKGLLETHFLKCPKPAAQEISSLADSLQLEKEVVRVWFCNRRQKEKR
3. KKRTSIEVSVKGHLETHFLKCPKPAAQEISSLADSLQLEKEVVRVWFCNRRQKEKR
4. KKRTSIEVSVKGVLETHFLKCPKPAAQEISSLADSLQLEKEVVRVWFCNQRQKEKR
5. KKRTSIEVSVKGVLETHFLKCPKPAAQEISSLADSLQLEKEAVRVWFCNRRQKEKR

-0.312
-0.02
-0.407
-0.88
-0.552

Please look at the items below and tell me abundance fitness for each one, in order.
1. KKRTSIEVSVKGVLETHFLKCPKPAAQEISSLADSLQCEKEVVRVWFCNRRQKEKR
2. KKRTSIEVSVKGVLETHFLKCPKPAAQEISSLADYLQLEKEVVRVWFCNRRQKEKR
3. KKRTSIEVSVKGVLETHFLKCPKPAAQEISSLADSLQLEKEVVSVWFCNRRQKEKR
4. KKRTSIEVSVKGVLETHFLKCPKPACQEISSLADSLQLEKEVVRVWFCNRRQKEKR

[-0.656, -0.364, -0.343, -0.211]
